target: FPTase (Homo sapiens, UniProt P49354+P49356); experiment: FPTase inhibition ([3H]FPP transfer to H-Ras); type: biochemical; conditions: 40 μM test compound (unless otherwise indicated)
measuredQuantity: inhibition at 40 µM (%)

compound | inhibition at 40 µM / %
CS(=O)(=O)CCC(NC(=O)CCc1cc(-c2cccnc2)n[nH]1)C(N)=O (stereo not drawn) | 78
CC(C)C(NC(=O)CCCCc1cc(-c2cccnc2)n[nH]1)C(N)=O (stereo not drawn) [IX, R^6 = ISOPROPYL, R^1 = HYDROGEN] | 78
NC(=O)C(Cc1c[nH]c2ccccc12)NC(=O)CCc1cc(-c2cccnc2)n[nH]1 (stereo not drawn) | 83
